Cited source for all entries: the supplement of paper PMC13380429

Test system: Vero E6
Test: cell viability relative to DMSO; higher = less toxic
Details: 72 h; 100 nM
endpoint-label: cell viability (%)
Provide only the numeric value, understood in %.

Some solved entries appear below for comparison.
COc1c(OCCCN2CCOCC2)ccc2c1N=C(NC(=O)c1cnc(N)nc1)N1CCN=C21 [copanlisib] = 96
CC(=O)OCC(=O)[C@@]1(O)CC[C@H]2[C@@H]3CCC4=CC(=O)C=C[C@]4(C)[C@H]3[C@@H](O)C[C@@]21C [prednisolone-acetate] = 104
CCCCN(Cc1ccc(C(=O)NO)cc1)C(=O)Nc1ccccc1 [nexturastat-A] = 96.7
COc1ccc(C(=O)N2CCCc3cc(C4=NNC(=O)SC4C)ccc32)cc1OC (configuration not stated) = 102
COc1cc(F)c(C(C)C)cc1-c1ccc(C(F)(F)F)cc1CN1C(=O)O[C@H](c2cc(C(F)(F)F)cc(C(F)(F)F)c2)[C@@H]1C [anacetrapib] = 97.6
CN1CCN(c2ccc3[nH]c(-c4ccc5[nH]c(-c6ccc(O)cc6)nc5c4)nc3c2)CC1 [pibenzimol] = 96

Please indicate cell viability recorded for Cc1cc(-c2ccc(/N=N/c3ccc4c(S(=O)(=O)O)cc(S(=O)(=O)O)c(N)c4c3O)c(C)c2)ccc1/N=N/c1ccc2c(S(=O)(=O)O)cc(S(=O)(=O)O)c(N)c2c1O [evans-blue]
94

###

System: Vero E6
Assay: cell viability relative to DMSO; higher = less toxic
Conditions: 72 h; 1 nM
endpoint-label: cell viability

Some solved entries appear below for comparison.
CC1CCN(CCCC(=O)c2ccc(F)cc2)CC1 = 100%
Cn1cnnc1Sc1c([N+](=O)[O-])ncn1C = 105%
Cc1csc2c(N[C@@H](C)CN3CCN(S(=O)(=O)c4ccc(Cl)c(Cl)c4)CC3)ncnc12 = 95.2%
C=CCOc1ccccc1OCC(O)CNC(C)C (configuration not stated) = 98.6%
C=C[C@@H]1C[C@]1(NC(=O)[C@@H]1C[C@@H]2CN1C(=O)[C@H](C(C)(C)C)NC(=O)O[C@@H]1C[C@H]1CCCCCc1nc3ccc(OC)cc3nc1O2)C(=O)NS(=O)(=O)C1CC1 = 96.3%
O=C1NC(=O)C(c2ccccc2[N+](=O)[O-])=C1Nc1ccc(O)c(Cl)c1 = 101%

Read the next record carefully.
Please indicate cell viability recorded for Cc1cccc(/C=C/c2ccccc2)n1
94%

###

// morphology score lookup, one value per entry
System: A549-ACE2 infected with SARS-CoV-2
Assay: morphology score (similarity to uninfected cells); higher = more like uninfected cells
Details: 0.1 µM; 24 h
Response field accepts a number only; no unit should be typed.

Some solved entries appear below for comparison.
COc1c(OCCCN2CCOCC2)ccc2c1N=C(NC(=O)c1cnc(N)nc1)N1CCN=C21 [copanlisib] = 0.23
CC(C)Oc1ccc(-c2nc(-c3cccc4c3CC[C@@H]4NCCO)no2)cc1C#N [ozanimod] = 0.14
O=S(=O)(NCC1CC1)c1ccc(Nc2nccc(N3CCCc4cc(O)ccc43)n2)cc1 [pyrintegrin] = 0.18
COc1ccc(C[C@H]2NC[C@H](O)[C@H]2OC(C)=O)cc1 [anisomycin] = 0.85
CCN(CC)CCCC(C)Nc1c2ccc(Cl)cc2nc2ccc(OC)cc12 (stereo unspecified) [mepacrine] = 0.52

Please indicate morphology score recorded for COc1ccc(NC(=O)c2ccc(-c3ccc(-c4noc(C)n4)cc3C)cc2)cc1N1CCN(C)CC1
-0.16
